B1: Homeobox protein cut-like 1, residues 941 to 1008; numbered along this chain, P39880 (parent)
chain: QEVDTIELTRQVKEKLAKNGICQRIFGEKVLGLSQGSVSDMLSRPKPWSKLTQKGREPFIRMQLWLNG

variants of: B1; assay: abundance fitness (aPCA) (normalised: wild type 0, dead -1); higher = more abundant; growth selection in yeast, the domain comes from the species named; conditions: Homo sapiens
Label scheme for abundance fitness: lower than -0.1 is Not satisfied, -0.1 and above is Satisfied.

>>> label("EEVDTIELTRQVKEKLAKNGICQRIFGEKVLGLSQGSVSDMLSRPKPWSKLTQKGREPFIRMQLWLNG [Q1E]")
"Satisfied"
>>> label("QEVDTIELTRQVKEKLAKNGICQRIFGEKVLGLSQGSVSDMLSKPKPWSKLTQKGREPFIRMQLWLNG [R44K]")
"Satisfied"
>>> label("QEVDTIELTRQVKEKLAKNGICQRIFGEKVLGLSQGSVSDMLSRPKPWSKLAQKGREPFIRMQLWLNG [T52A]")
"Satisfied"
>>> label("QIVDTIELTRQVKEKLAKNGICQRIFGEKVLGLSQGSVSDMLSRPKPWSKLTQKGREPFIRMQLWLNG [E2I]")
"Satisfied"
>>> label("QEVDTIELTRQVKEKLAKNGICQRIFGEKVLGPSQGSVSDMLSRPKPWSKLTQKGREPFIRMQLWLNG [L33P]")
"Not satisfied"
>>> label("QEVDTIELTRQCKEKLAKNGICQRIFGEKVLGLSQGSVSDMLSRPKPWSKLTQKGREPFIRMQLWLNG [V12C]")
"Not satisfied"
>>> label("QEVDTNELTRQVKEKLAKNGICQRIFGEKVLGLSQGSVSDMLSRPKPWSKLTQKGREPFIRMQLWLNG [I6N]")
"Satisfied"
>>> label("QEVDTIELTRQVKEKLAKNGICQRIFGEKVLGLSQGAVSDMLSRPKPWSKLTQKGREPFIRMQLWLNG [S37A]")
"Satisfied"
>>> label("QEVDTRELTRQVKEKLAKNGICQRIFGEKVLGLSQGSVSDMLSRPKPWSKLTQKGREPFIRMQLWLNG [I6R]")
"Satisfied"
>>> label("QEVDTIEQTRQVKEKLAKNGICQRIFGEKVLGLSQGSVSDMLSRPKPWSKLTQKGREPFIRMQLWLNG [L8Q]")
"Satisfied"
>>> label("QEVDTIELTRQVKEKLAKNGICQRIFGVKVLGLSQGSVSDMLSRPKPWSKLTQKGREPFIRMQLWLNG [E28V]")
"Not satisfied"
>>> label("QEVDTIELTRQVKEKLAKNGICQRIFGEKVLMLSQGSVSDMLSRPKPWSKLTQKGREPFIRMQLWLNG [G32M]")
"Not satisfied"
>>> label("QEVDTIELTRQVKEKLAKNGICQRIFGEKVLGLSQGSVWDMLSRPKPWSKLTQKGREPFIRMQLWLNG [S39W]")
"Not satisfied"
>>> label("QEVDTIELTRQVKEKLAKNGINQRIFGEKVLGLSQGSVSDMLSRPKPWSKLTQKGREPFIRMQLWLNG [C22N]")
"Not satisfied"
>>> label("YEVDTIELTRQVKEKLAKNGICQRIFGEKVLGLSQGSVSDMLSRPKPWSKLTQKGREPFIRMQLWLNG [Q1Y]")
"Not satisfied"
>>> label("QEVDTIELTRQVKEKLAKNGICQRIFGEKVLGLSQGSVSDMLSRPFPWSKLTQKGREPFIRMQLWLNG [K46F]")
"Not satisfied"
>>> label("QEVDTIELTRQVKEKLAKNGICQRIFGEKVLGLSQGSVKDMLSRPKPWSKLTQKGREPFIRMQLWLNG [S39K]")
"Satisfied"
>>> label("QEVDTIELTRQVKEKPAKNGICQRIFGEKVLGLSQGSVSDMLSRPKPWSKLTQKGREPFIRMQLWLNG [L16P]")
"Satisfied"
>>> label("QEVDTIELTRQVKEKLAKNGICQRIFGEKVLGLSQGSSSDMLSRPKPWSKLTQKGREPFIRMQLWLNG [V38S]")
"Satisfied"
>>> label("QEVDTIELTRQVKEKLAKNGICQRIFGEKVLGLMQGSVSDMLSRPKPWSKLTQKGREPFIRMQLWLNG [S34M]")
"Satisfied"
>>> label("QWVDTIELTRQVKEKLAKNGICQRIFGEKVLGLSQGSVSDMLSRPKPWSKLTQKGREPFIRMQLWLNG [E2W]")
"Not satisfied"
>>> label("QEVDTIELTRQVKEKLAKNGICQRIFGEKVGGLSQGSVSDMLSRPKPWSKLTQKGREPFIRMQLWLNG [L31G]")
"Not satisfied"
>>> label("QEVDTIELTRQVKEKLAHNGICQRIFGEKVLGLSQGSVSDMLSRPKPWSKLTQKGREPFIRMQLWLNG [K18H]")
"Not satisfied"
>>> label("QEVDTIELTRQVKEKLAKNGRCQRIFGEKVLGLSQGSVSDMLSRPKPWSKLTQKGREPFIRMQLWLNG [I21R]")
"Not satisfied"
>>> label("QEVDTIELTRQVKEKLAKNFICQRIFGEKVLGLSQGSVSDMLSRPKPWSKLTQKGREPFIRMQLWLNG [G20F]")
"Not satisfied"
>>> label("QEVDTIELTRQVKEKLAKNGICQRIFGEKVTGLSQGSVSDMLSRPKPWSKLTQKGREPFIRMQLWLNG [L31T]")
"Not satisfied"
>>> label("QQVDTIELTRQVKEKLAKNGICQRIFGEKVLGLSQGSVSDMLSRPKPWSKLTQKGREPFIRMQLWLNG [E2Q]")
"Satisfied"
>>> label("QEVQTIELTRQVKEKLAKNGICQRIFGEKVLGLSQGSVSDMLSRPKPWSKLTQKGREPFIRMQLWLNG [D4Q]")
"Not satisfied"
>>> label("QEVDTIELTRQVKEKLAKNGICQRIFGEKVLGLSQGSVSFMLSRPKPWSKLTQKGREPFIRMQLWLNG [D40F]")
"Not satisfied"
>>> label("QEVDTIELTSQVKEKLAKNGICQRIFGEKVLGLSQGSVSDMLSRPKPWSKLTQKGREPFIRMQLWLNG [R10S]")
"Not satisfied"
>>> label("QEVDTIELTRQVKEKLAKNGICQRIFGEKVLGLSQGSVSDMLSRVKPWSKLTQKGREPFIRMQLWLNG [P45V]")
"Not satisfied"
>>> label("QEVDTIELTRQVKEKLALNGICQRIFGEKVLGLSQGSVSDMLSRPKPWSKLTQKGREPFIRMQLWLNG [K18L]")
"Not satisfied"
>>> label("QEVDTIELTRQVKEKLAKNGICQRIFGEKVLGLSQGSVSDMASRPKPWSKLTQKGREPFIRMQLWLNG [L42A]")
"Not satisfied"
>>> label("KEVDTIELTRQVKEKLAKNGICQRIFGEKVLGLSQGSVSDMLSRPKPWSKLTQKGREPFIRMQLWLNG [Q1K]")
"Satisfied"
>>> label("QEVDTHELTRQVKEKLAKNGICQRIFGEKVLGLSQGSVSDMLSRPKPWSKLTQKGREPFIRMQLWLNG [I6H]")
"Satisfied"
>>> label("QEVDTIELTRQVKEKLAKNIICQRIFGEKVLGLSQGSVSDMLSRPKPWSKLTQKGREPFIRMQLWLNG [G20I]")
"Not satisfied"
>>> label("QEVDTIELTRQVKRKLAKNGICQRIFGEKVLGLSQGSVSDMLSRPKPWSKLTQKGREPFIRMQLWLNG [E14R]")
"Satisfied"
>>> label("QEVDTIELTRQVKEVLAKNGICQRIFGEKVLGLSQGSVSDMLSRPKPWSKLTQKGREPFIRMQLWLNG [K15V]")
"Not satisfied"
>>> label("QEVDTIALTRQVKEKLAKNGICQRIFGEKVLGLSQGSVSDMLSRPKPWSKLTQKGREPFIRMQLWLNG [E7A]")
"Satisfied"
>>> label("QEVDTIELTRQVKPKLAKNGICQRIFGEKVLGLSQGSVSDMLSRPKPWSKLTQKGREPFIRMQLWLNG [E14P]")
"Satisfied"
>>> label("QEVDTIELTRQVKEKLAKNGICQRIFGEKVLGLSQGSVSDMLLRPKPWSKLTQKGREPFIRMQLWLNG [S43L]")
"Not satisfied"

Source listed as the Human Domainome abundance scans (Beltran et al. 2025).
